test system: Setaria glauca (L.) Beauv.; assay: Bioassay of herbicidal activity in greenhouse (further screening); type: in vivo; details: pre-emergence; dose 15 g a.i./hm^2
Endpoint label: Growth inhibition rate, Pre-emergence treatment, Setaria glauca (L.) Beauv. (%)
Answers are plain numbers, in %.

> print(dat)
                                   compound  numeric.readout
1  CC(C)C(=O)OCC1(C)CC(c2cc(-n3c(=O)cc(C(F)(F)F)n(C)c3=O)c(F)cc2Cl)=NO1 (centres unmarked) [Compound 46]               60

Look up Growth inhibition rate, Pre-emergence treatment, Setaria glauca (L.) Beauv. for the entries below, preserving their order.
1. Cn1c(C(F)(F)F)cc(=O)n(-c2cc(C3=NOC(C)(COC(=O)COc4ccc(Cl)cc4Cl)C3)c(Cl)cc2F)c1=O (centres unmarked) [Compound 83]
2. Cn1c(C(F)(F)F)cc(=O)n(-c2cc(C3=NOC(C)(COS(C)(=O)=O)C3)c(Cl)cc2F)c1=O (centres unmarked) [Compound 88]
3. Cn1c(C(F)(F)F)cc(=O)n(-c2cc(C3=NOC(C)(COC(=O)C4CC4)C3)c(Cl)cc2F)c1=O (centres unmarked) [Compound 45]

1. 15
2. 80
3. 80

Fill in the recorded Growth inhibition rate, Pre-emergence treatment, Setaria glauca (L.) Beauv. for this compound, with Setaria glauca (L.) Beauv. as test system: CC(=O)OCC1(C)CC(c2cc(-n3c(=O)cc(C(F)(F)F)n(C)c3=O)c(F)cc2Cl)=NO1 (centres unmarked) [Compound 43]
35

----------
tested on: Setaria glauca (L.) Beauv.; assay: Bioassay of herbicidal activity in greenhouse (further screening); format: in vivo; settings: pre-emergence; dose 150 g a.i./hm^2
Kindly supply the reported Growth inhibition rate, Pre-emergence treatment, Setaria glauca (L.) Beauv. values for the records listed here.
Give your result as the value with the unit written after it.

> print(dat)
                                   molecule           system.under.test  result
1  Cn1c(C(F)(F)F)cc(=O)n(-c2cc(C3=NOC(C)(COC(=O)COc4ccc(Cl)cc4Cl)C3)c(Cl)cc2F)c1=O (stereo not shown)  Setaria glauca (L.) Beauv.     80%

Look up Growth inhibition rate, Pre-emergence treatment, Setaria glauca (L.) Beauv. for the entries below, preserving their order.
1. Cn1c(C(F)(F)F)cc(=O)n(-c2cc(C3=NOC(C)(COC(=O)C4CC4)C3)c(Cl)cc2F)c1=O (stereo not shown)
2. CC(C)C(=O)OCC1(C)CC(c2cc(-n3c(=O)cc(C(F)(F)F)n(C)c3=O)c(F)cc2Cl)=NO1 (stereo not shown)

90%
100%

Look up Growth inhibition rate, Pre-emergence treatment, Setaria glauca (L.) Beauv. for the entries below, preserving their order.
1. CCCS(=O)(=O)OCC1(C)CC(c2cc(-n3c(=O)cc(C(F)(F)F)n(C)c3=O)c(F)cc2Cl)=NO1 (stereo not shown)
2. Cn1c(C(F)(F)F)cc(=O)n(-c2cc(C3=NOC(C)(COC(=O)CCl)C3)c(Cl)cc2F)c1=O (stereo not shown)
3. Cn1c(C(F)(F)F)cc(=O)n(-c2cc(C3=NOC(C)(COC(=O)CCc4ccccc4)C3)c(Cl)cc2F)c1=O (stereo not shown)

1. 20%
2. 30%
3. 5%

So what's the measured Growth inhibition rate, Pre-emergence treatment, Setaria glauca (L.) Beauv. for this one? CSCCC(=O)OCC1(C)CC(c2cc(-n3c(=O)cc(C(F)(F)F)n(C)c3=O)c(F)cc2Cl)=NO1 (stereo not shown)
20%
